Recorded growth values for a group of compounds are listed next.
# Tested on: UACC-62 melanoma
# method-summary: NCI-60 one-dose screen, 48 h (100 = growth as untreated, 0 = no growth, -100 = all killed)
# protocol-conditions: 10 µM unless noted
Compounds without any hit were thinned out: in the full panel of roughly 83,000, 20% have a hit.
// units = %; emit number, no label

compound	recorded-measurement
COc1cc(C(=O)c2cc(C)c3[nH]c4ccc(O)cc4c3c2C)cc(OC)c1OC	59.8
N#CC1=C(N)Oc2c(sc3c(Br)cccc23)C1c1ccc([N+](=O)[O-])cc1 (stereo not given)	15.2
CC(=O)N1CCN(c2ccc(OCC3CO[C@](Cn4ccnc4)(c4ccc(Cl)cc4Cl)O3)cc2)CC1 (stereo not given in full)	57.2
CNC(=O)c1cc(-n2ccc3cc(NC(=O)c4ccc(N5CCOCC5)c(C(F)(F)F)c4)ccc32)ccn1	38.7
CC(=O)c1ccc(Nc2nc(C(C)=O)c(C)s2)cc1	96.1

Q: Notebook: pull reported growth for UACC-62 melanoma, entry COc1cc(/C=C/c2c(C(C)=O)c(C)nc3ccccc23)cc(OC)c1OC
A: 39.8

Q: Notebook: pull reported growth for UACC-62 melanoma, entry COc1cc(C(=O)/C=C/c2c(Cl)nc3sccn23)cc(OC)c1OC
A: 78.7

Q: Notebook: pull reported growth for UACC-62 melanoma, entry O=[N+]([O-])c1ccc(Cl)c(-c2cc(CCCCO)on2)c1
A: 93.8

Q: Notebook: pull reported growth for UACC-62 melanoma, entry COc1ccc(N2C(=O)C(Oc3ccccc3)C2c2ccc(C)cc2)cc1 (stereo not given)
A: 102

Q: Notebook: pull reported growth for UACC-62 melanoma, entry Oc1c(I)cc(I)cc1CNCCCN(Cc1ccccn1)Cc1ccccn1
A: -55.5
